The values you see were collected from patent US8822462B2.

# assay-system: NR1/NR2A (Homo sapiens, UniProt Q12879)
# Construct: expressed in transfected cells; host or cells: Xenopus laevis oocytes
# Sequence (Q12879 23-1464, species assumed, other chains not shown): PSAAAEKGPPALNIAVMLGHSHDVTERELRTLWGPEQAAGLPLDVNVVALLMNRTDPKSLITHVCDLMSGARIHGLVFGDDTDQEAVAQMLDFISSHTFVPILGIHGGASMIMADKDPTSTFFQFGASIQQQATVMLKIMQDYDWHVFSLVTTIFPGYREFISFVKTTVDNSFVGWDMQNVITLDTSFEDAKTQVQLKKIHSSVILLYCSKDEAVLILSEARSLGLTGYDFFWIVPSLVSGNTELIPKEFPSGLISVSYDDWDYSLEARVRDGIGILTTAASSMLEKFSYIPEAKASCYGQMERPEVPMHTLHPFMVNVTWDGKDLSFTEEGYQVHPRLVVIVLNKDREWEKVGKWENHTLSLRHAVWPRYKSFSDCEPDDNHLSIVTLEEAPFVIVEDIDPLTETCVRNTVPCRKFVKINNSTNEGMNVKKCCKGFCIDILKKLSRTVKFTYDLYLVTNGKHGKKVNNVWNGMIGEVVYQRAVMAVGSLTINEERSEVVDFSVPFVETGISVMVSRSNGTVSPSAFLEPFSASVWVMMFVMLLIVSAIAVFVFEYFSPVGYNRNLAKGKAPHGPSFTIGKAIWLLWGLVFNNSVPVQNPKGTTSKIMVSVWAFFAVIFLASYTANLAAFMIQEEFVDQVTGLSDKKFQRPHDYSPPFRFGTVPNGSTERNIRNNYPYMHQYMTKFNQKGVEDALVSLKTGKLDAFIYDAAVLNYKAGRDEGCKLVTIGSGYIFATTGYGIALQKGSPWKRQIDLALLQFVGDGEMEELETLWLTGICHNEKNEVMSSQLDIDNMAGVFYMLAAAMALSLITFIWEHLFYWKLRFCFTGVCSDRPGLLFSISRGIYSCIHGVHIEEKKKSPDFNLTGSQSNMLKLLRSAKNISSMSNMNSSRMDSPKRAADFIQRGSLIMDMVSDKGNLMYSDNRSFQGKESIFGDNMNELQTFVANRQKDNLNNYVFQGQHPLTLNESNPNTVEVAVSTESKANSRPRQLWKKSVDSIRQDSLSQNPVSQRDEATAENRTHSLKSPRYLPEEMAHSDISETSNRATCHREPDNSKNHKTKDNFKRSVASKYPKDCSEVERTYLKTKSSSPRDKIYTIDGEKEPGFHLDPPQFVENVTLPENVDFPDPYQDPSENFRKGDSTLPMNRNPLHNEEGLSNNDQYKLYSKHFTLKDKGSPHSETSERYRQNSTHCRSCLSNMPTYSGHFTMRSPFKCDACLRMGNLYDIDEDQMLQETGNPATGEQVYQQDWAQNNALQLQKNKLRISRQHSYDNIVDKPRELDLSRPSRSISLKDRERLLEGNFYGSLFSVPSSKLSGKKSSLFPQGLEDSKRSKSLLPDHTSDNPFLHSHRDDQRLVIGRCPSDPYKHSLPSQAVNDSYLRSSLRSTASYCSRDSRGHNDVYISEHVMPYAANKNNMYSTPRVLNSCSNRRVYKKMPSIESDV
# measurement-notes: Two electrode voltage clamp, Xenopus laevis oocytes expressing NR1/NR2A
# Format: cell-based
# test-parameters: at 100 μM; read-out: 2A percent effect at the maximum tested concentration
property-measured: activity at 100 µM (%)

Worked set:
1) COc1ccc(OCC2c3cc(OC)c(OC)cc3CCN2C(=O)c2cccc(O)c2)cc1 (stereo not drawn) | 126
2) O=C(O)C1=C(NC(=O)c2ccc(Br)cc2)SC2CCCC12 (stereo not drawn) | 86
3) CC(C)(C)c1ccc(C(=O)Nc2scc(-c3ccc(Br)cc3)c2C(=O)O)cc1 | 107
4) COc1cc2c(cc1OC)C(COc1ccc(F)cc1)N(C(=O)c1cccc(F)c1)CC2 (stereo not drawn) | 101
5) CCOc1ccc(-c2csc(NC(=O)c3ccc(C(C)(C)C)cc3)c2C(=O)O)cc1 | 121

(1) CC(C)(C)c1ccc(C(=O)Nc2ccccc2C(=O)O)cc1
(2) COc1ccc(OCC2c3cc(OC)c(OC)cc3CCN2C(=O)N2CCOCC2)cc1 (stereo not drawn)
*Q* Form field 'greater activity at 100 µM' accepts 1 or 2 ; which applies? The response must carry the label of the picked entry.
*A* 2
(2: 140%, 1: 94%)

----------
# assay-system: NR1/NR2A (Homo sapiens, UniProt Q12879)
# Construct: expressed in transfected cells; host or cells: Xenopus laevis oocytes
# measurement-notes: Two electrode voltage clamp, Xenopus laevis oocytes expressing NR1/NR2A
# Format: cell-based
# test-parameters: at 100 μM; read-out: 2A percent effect at the maximum tested concentration
property-measured: activity at 100 µM (%)

1. CCc1ccc(C(=O)Nc2sccc2C(=O)O)cc1 | 95
2. COc1cc2c(cc1OC)C(COc1ccc(OC(F)(F)F)cc1)N(C(=O)c1cccc(Cl)c1)CC2 (stereo not drawn) | 87
3. COc1ccc(OCC2c3c(cc(OC)cc3OC)CCN2C(=O)c2ccccc2)cc1 (stereo not drawn) | 63
4. CC(C)(C)c1ccc(C(=O)Nc2scc(-c3ccccc3)c2C(=O)O)cc1 | 75
5. COc1ccc(OCC2c3ccc(OC)cc3CCN2C(=O)c2cccc(Br)c2)cc1 (stereo not drawn) | 107
6. Cc1ccc(CSc2nccn2C(=O)c2ccc(C(C)(C)C)cc2)cc1 | 88
7. CSC1=NCCN1C(=O)c1ccc2ccccc2c1 | 104
8. CC(C)c1ccc(C(=O)Nc2sccc2C(=O)O)cc1 | 98
9. COc1ccc(OCC2c3cc(OC)c(OC)cc3CCN2C(=O)c2cccc(F)c2)cc1 (stereo not drawn) | 94

----------
# assay-system: NR1/NR2C (Homo sapiens, UniProt Q05586+Q14957)
# Construct: expressed in transfected cells; host or cells: Xenopus laevis oocytes
# Sequence (Q14957 20-1233, species assumed, other chains not shown): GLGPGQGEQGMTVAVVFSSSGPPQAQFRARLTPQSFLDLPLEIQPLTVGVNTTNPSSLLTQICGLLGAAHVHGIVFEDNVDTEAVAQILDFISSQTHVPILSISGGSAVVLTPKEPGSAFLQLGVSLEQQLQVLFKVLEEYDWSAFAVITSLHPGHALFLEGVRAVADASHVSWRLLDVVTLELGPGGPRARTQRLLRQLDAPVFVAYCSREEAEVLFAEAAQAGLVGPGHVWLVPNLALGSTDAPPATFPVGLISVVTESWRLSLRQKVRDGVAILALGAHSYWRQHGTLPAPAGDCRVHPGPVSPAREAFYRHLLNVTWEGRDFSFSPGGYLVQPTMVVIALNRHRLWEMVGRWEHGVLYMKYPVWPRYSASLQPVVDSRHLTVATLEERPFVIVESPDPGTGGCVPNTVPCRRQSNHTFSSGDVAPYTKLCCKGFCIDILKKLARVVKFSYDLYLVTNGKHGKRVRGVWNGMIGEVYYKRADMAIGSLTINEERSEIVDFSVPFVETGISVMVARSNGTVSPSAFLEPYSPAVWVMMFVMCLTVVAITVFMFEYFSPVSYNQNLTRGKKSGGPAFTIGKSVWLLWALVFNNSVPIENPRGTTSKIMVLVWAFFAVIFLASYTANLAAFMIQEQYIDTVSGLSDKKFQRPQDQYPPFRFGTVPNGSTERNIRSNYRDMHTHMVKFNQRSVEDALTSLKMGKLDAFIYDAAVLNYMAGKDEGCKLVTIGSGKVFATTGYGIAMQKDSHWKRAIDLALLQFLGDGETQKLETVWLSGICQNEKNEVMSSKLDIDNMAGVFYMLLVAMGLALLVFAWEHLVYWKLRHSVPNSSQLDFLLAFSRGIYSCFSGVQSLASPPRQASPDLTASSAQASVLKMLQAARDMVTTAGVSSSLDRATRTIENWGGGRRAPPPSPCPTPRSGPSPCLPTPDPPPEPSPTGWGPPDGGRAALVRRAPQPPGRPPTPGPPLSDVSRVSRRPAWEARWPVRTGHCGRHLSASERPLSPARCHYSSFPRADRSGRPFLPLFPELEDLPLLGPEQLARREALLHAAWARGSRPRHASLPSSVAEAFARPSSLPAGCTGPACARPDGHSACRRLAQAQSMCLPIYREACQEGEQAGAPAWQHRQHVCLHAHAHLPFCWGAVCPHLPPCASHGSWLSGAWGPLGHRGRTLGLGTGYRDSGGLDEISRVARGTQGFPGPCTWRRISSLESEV
# measurement-notes: Two electrode voltage clamp, Xenopus laevis oocytes expressing NR1/NR2C
# Assay type: cell-based
# test-parameters: maximal effect of fit; read-out: 2C Max
property-measured: Emax (%)
Please state the figure in %; there is no need to write the unit.

Worked set:
1) COc1ccc(OCC2c3cc(OC)c(OC)cc3CCN2C(=O)c2cccc(F)c2)cc1 (stereo not drawn) [compound 1369] | 184
2) Cc1cc(C(=O)O)c(NC(=O)c2ccc(C(C)(C)C)cc2)s1 [compound 1357] | 388

*Q* State its Emax on NR1/NR2C (Homo sapiens, UniProt Q05586+Q14957): COc1ccc(OCC2c3cc(OC)c(OC)cc3CCN2C(=O)c2cccc(Cl)c2)cc1 (stereo not drawn) [compound 1390]
*A* 215

*Q* State its Emax on NR1/NR2C (Homo sapiens, UniProt Q05586+Q14957): CCc1cc(C(=O)O)c(NC(=O)c2ccc(C(C)(C)C)cc2)s1 [compound 1421]
*A* 159

*Q* State its Emax on NR1/NR2C (Homo sapiens, UniProt Q05586+Q14957): COc1ccc(OCC2c3cc(OC)c(OC)cc3CCN2C(=O)c2ccc(Cl)c(Cl)c2)cc1 (stereo not drawn) [1180-10]
*A* 134

*Q* State its Emax on NR1/NR2C (Homo sapiens, UniProt Q05586+Q14957): CC(C)(C)c1ccc(C(=O)Nc2sc3c(c2C(=O)O)CCC3)cc1 [compound 1399]
*A* 301

*Q* State its Emax on NR1/NR2C (Homo sapiens, UniProt Q05586+Q14957): COc1ccc(OCC2c3cc(OC)c(OC)cc3CCN2C(=O)c2cccc(I)c2)cc1 (stereo not drawn) [1180-11]
*A* 431

*Q* State its Emax on NR1/NR2C (Homo sapiens, UniProt Q05586+Q14957): COc1ccc(/C=C/C2c3cc(OC)c(OC)cc3CCN2C(=O)c2cccc(Cl)c2)cc1 (stereo not drawn) [1180-31]
*A* 190

*Q* State its Emax on NR1/NR2C (Homo sapiens, UniProt Q05586+Q14957): Cc1sc(NC(=O)c2ccc(C(C)(C)C)cc2)c(C(=O)O)c1C [compound 1418]
*A* 187

----------
# assay-system: NR1/NR2B (Homo sapiens, UniProt Q05586+Q13224)
# Construct: expressed in transfected cells; host or cells: Xenopus laevis oocytes
# Sequence (Q13224 27-1484, species assumed, other chains not shown): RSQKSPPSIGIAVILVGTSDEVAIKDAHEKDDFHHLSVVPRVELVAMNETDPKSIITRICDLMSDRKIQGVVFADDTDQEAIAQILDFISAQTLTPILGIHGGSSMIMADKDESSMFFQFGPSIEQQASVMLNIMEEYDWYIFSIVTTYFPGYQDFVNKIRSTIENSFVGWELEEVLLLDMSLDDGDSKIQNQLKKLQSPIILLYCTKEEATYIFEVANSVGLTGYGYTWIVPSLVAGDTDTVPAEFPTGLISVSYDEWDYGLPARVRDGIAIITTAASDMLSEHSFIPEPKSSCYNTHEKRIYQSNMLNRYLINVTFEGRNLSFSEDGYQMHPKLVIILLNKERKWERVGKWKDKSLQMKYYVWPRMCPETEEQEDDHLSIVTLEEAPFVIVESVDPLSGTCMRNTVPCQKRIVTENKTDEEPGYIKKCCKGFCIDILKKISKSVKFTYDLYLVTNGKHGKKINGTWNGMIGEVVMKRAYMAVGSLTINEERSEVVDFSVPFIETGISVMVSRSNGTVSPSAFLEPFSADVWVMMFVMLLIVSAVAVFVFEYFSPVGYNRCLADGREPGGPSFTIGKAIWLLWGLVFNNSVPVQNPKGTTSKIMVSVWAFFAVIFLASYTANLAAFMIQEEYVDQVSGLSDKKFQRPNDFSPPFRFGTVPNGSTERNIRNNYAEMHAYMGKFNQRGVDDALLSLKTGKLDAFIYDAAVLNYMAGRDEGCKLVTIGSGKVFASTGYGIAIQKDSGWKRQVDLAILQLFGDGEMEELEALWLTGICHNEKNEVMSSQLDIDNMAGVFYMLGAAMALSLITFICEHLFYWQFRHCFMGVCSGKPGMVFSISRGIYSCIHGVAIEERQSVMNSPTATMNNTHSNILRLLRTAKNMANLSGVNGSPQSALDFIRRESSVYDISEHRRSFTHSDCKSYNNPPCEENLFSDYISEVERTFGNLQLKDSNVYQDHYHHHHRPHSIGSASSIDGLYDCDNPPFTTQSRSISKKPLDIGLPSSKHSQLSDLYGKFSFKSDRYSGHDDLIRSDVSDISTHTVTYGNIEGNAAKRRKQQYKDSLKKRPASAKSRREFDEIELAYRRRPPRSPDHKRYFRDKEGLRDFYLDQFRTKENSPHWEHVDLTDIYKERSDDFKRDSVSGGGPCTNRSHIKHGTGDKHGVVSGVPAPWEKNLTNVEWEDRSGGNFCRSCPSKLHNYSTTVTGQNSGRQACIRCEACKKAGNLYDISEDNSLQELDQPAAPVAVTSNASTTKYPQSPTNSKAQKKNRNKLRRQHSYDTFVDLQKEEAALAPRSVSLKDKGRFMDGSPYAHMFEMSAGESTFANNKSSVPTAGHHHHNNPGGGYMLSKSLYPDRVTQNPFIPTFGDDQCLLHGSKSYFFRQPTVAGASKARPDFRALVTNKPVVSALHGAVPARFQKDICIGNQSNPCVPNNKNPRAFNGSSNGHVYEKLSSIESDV
# measurement-notes: Two electrode voltage clamp, Xenopus laevis oocytes expressing NR1/NR2B
# Format: cell-based
# test-parameters: at 100 μM; read-out: 2B percent effect at the maximum tested concentration
property-measured: activity at 100 µM (%)

1. COc1cccc(OCC2c3cc(OC)c(OC)cc3CCN2C(=O)c2ccccc2)c1 (centres unmarked) | 92
2. Cc1cc(NC(=O)c2ccc(C(C)(C)C)cc2)no1 | 87
3. COc1ccc(OCC2c3cc(OC)c(OC)cc3CCN2C(=O)c2ccc([N+](=O)[O-])cc2)cc1 (centres unmarked) | 78
4. COc1cc2c(cc1OC)C(COc1ccc(OC(F)(F)F)cc1)N(C(=O)c1cccc(Cl)c1)CC2 (centres unmarked) | 97
5. COc1ccc(OCC2c3c(cc(OC)cc3OC)CCN2C(=O)c2cccc(Cl)c2)cc1 (centres unmarked) | 86

(A) CCOC(=O)c1cc(C)sc1NC(=O)c1ccc(C(C)(C)C)cc1
(B) COc1cc2c(cc1OC)C(COc1ccc(SC)cc1)N(C(=O)c1ccccc1)CC2 (centres unmarked)
*Q* Could you check which of A and B has a smaller value for activity at 100 µM? The response must carry the label of the picked entry.
*A* A
(A: 89%, B: 128%)

----------
# assay-system: NR1/NR2C (Homo sapiens, UniProt Q05586+Q14957)
# Construct: expressed in transfected cells; host or cells: Xenopus laevis oocytes
# measurement-notes: Two electrode voltage clamp, Xenopus laevis oocytes expressing NR1/NR2C
# Format: cell-based
# test-parameters: at 100 μM; read-out: 2C percent effect at the maximum tested concentration
# Description: Values are mean+SEM (n=14-20). […] C is the closed level; broken line is the open level. The Hill slope at both receptors for all analogues was greater than 1, consistent with a cooperative effect of binding at two sites. In the table above, potency is expressed as fitted EC50 value to average composite concentration-effect data constructed from current responses recorded under two electrode voltage clamp from Xenopus laevis oocytes expressing either NR1/NR2A, B, C, or D, GluR1, or GluR6. […]
property-measured: activity at 100 µM (%)

1) CSC1=NCCN1C(=O)c1ccc2ccccc2c1 | 103
2) COc1ccc(NC(O)C2CN(C)C(=O)c3cc(OC)c(OC)cc32)c(OC)c1 (stereo not drawn) | 77
3) COc1cc2c(cc1OC)C(COc1ccccc1)N(C(=O)c1ccccc1)CC2 (stereo not drawn) | 77
4) CCN1CC(C(O)Nc2ccc(OC)cc2OC)c2cc(OC)c(OC)cc2C1=O (stereo not drawn) | 84
5) COc1ccc(OCC2c3cc(OC)c(OC)cc3CCN2C(=O)c2ccc3c(c2)OCO3)cc1 (stereo not drawn) | 95
6) Cc1csc(C(=O)O)c1NC(=O)c1ccc(C(C)(C)C)cc1 | 80
7) COc1cc2c(cc1OC)C(COc1ccc(SC)cc1)N(C(=O)c1ccccc1)CC2 (stereo not drawn) | 93
8) COc1cccc(OCC2c3cc(OC)c(OC)cc3CCN2C(=O)c2ccccc2)c1 (stereo not drawn) | 75
9) COc1ccc(OCC2c3cc(OC)c(OC)cc3CCN2C(=S)Nc2ccccc2)cc1 (stereo not drawn) | 93

----------
# assay-system: NR1/NR2C (Homo sapiens, UniProt Q05586+Q14957)
# Construct: expressed in transfected cells; host or cells: Xenopus laevis oocytes
# measurement-notes: Two electrode voltage clamp, Xenopus laevis oocytes expressing NR1/NR2C
# Format: cell-based
# test-parameters: maximal effect of fit; read-out: 2C Max
Listing: Emax of selected compounds
Please state the figure in %; there is no need to write the unit.

1) COc1ccc(OC[C@@H]2c3cc(OC)c(OC)cc3CCN2C(=O)c2cccc(Cl)c2)cc1 | 330
2) COc1ccc(OCC2c3cc(OC)c(OC)cc3CCN2C(=O)c2cccc(Cl)c2Cl)cc1 (centres unmarked) | 133
3) COc1ccc(OCC2c3cc4c(cc3CCN2C(=O)c2cccc(Cl)c2)OCO4)cc1 (centres unmarked) | 188
4) CC(C)(C)c1ccc(CSc2nc(N)cc(O)n2)cc1 | 424
5) CCOc1ccc(-c2csc(NC(=O)c3ccc(C(C)(C)C)cc3)c2C(=O)O)cc1 | 323
6) COc1ccc(OCC2c3cc(OC)c(OC)cc3CCN2C(=O)c2cccc(Br)c2)cc1 (centres unmarked) | 195
7) COc1ccc(OCC2c3cc(OC)c(OC)cc3CCN2C(=O)c2cccc(C)c2)cc1 (centres unmarked) | 208

Next compound, please.
*Q* Returns the measured Emax for the input compound. Input: CC(C)(C)c1ccc(C(=O)Nc2scc(-c3ccccc3)c2C(=O)O)cc1
*A* 341
